# Tested on: PC49
# METHOD_SUMMARY: qHTS profiling for inhibitors of Plasmodium falciparum proliferation (AID 504749);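 note: 0% = DMSO vehicle and full inhibition = artemisinin control; nearly all actives have a fitted effect of over 60% in size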
# APPLIED_CONDITIONS: P. falciparum in erythrocytes, SYBR Green DNA, 72 h; series mostly up to 28.7 µM
# Method: NIH National Institute of Allergy and Infectious Diseases [NIAID] NIH Chemical Genomics Center [NCGC] […] Because mature erythrocytes lack DNA, only Plasmodium-derived DNA is detected. NCGC Assay Protocol Summary: The SYBR Green viability assay was adapted from a method described previously (Plouffe et al., 2008). […] The following morning, fluorescence intensity at 485(14) nm excitation and 535(25) nm emission wavelengths was measured on an EnVision (Perkin Elmer) plate reader. […]
Records with an inconclusive call do not appear. Activity calls are given as the source filed them. Calls come from the whole dose curve; as a rule, active = well fitted inhibition curve with a large enough effect; inconclusive = small, poorly fitted or top-dose-only effect; inactive = flat fitted curve, though single readings scatter.
Hi! Could you answer with just one of these? active, inactive

Data request: Check the results log: what was the call for CC(=O)N[C@@H](CCC(=O)O)C(=O)O ?
Data returned: inactive

Data request: Check the results log: what was the call for Cn1c(=O)c2[nH]c(Br)nc2n(C)c1=O ?
Data returned: inactive

Data request: Check the results log: what was the call for CC(=O)NCCCCCC(=O)O ?
Data returned: inactive

Data request: Check the results log: what was the call for C#C[C@]1(O)CC[C@H]2[C@@H]3CCC4=CC(=O)CC[C@@H]4[C@H]3CC[C@@]21CC ?
Data returned: inactive

Data request: Check the results log: what was the call for COC(=O)C(c1ccccc1Cl)N1CCc2sccc2C1 (stereo unspecified) ?
Data returned: inactive

Data request: Check the results log: what was the call for Cc1ccc(S(=O)(=O)NC(=O)NC2CCCC2)cc1 ?
Data returned: inactive

----------
# METHOD_SUMMARY: qHTS of pediatric cancer cell lines to identify multiple opportunities for drug repurposing: Primary screen for BT-37 cells (AID 1347094);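 note: plate controls were DMSO for no effect and bortezomib for full effect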
# APPLIED_CONDITIONS: BT-37 viability, CellTiter-Glo luminescence, 48 h; series mostly up to 57.3 µM
Inconclusive results are not listed. Calls of active or inactive are those of the source. Calls come from the whole dose curve; as a rule, active = well fitted cell-killing curve with a large enough effect; inconclusive = small, poorly fitted or top-dose-only effect; inactive = flat fitted curve, though single readings scatter.
MEASURED_ATTRIBUTE: outcome

* CCCCN1C[C@H](O)[C@@H](O)[C@H](O)[C@H]1CO | inactive
* CCCCC(CC)CN1CN(CC(CC)CCCC)CC(C)(N)C1 (stereo not drawn) | inactive
* NCc1ccccc1Sc1ccccc1CO | inactive
* NC(=O)c1ccccc1O | inactive
* COc1ccc(/C=N/NC(=O)c2ccncc2)cc1OC | inactive
* CCCCCCCC/C=C\CCCCCCCCN | inactive
* CCN(CC)CCOc1ccccc1C(=O)CCc1ccccc1 | inactive
* CO[C@]12C[C@@H](COC(=O)c3cncc(Br)c3)CN(C)[C@@H]1Cc1cn(C)c3cccc2c13 | inactive
* CNCCc1ccccn1 | inactive
* Nc1nc(-c2ccccc2)c(Br)c(=O)[nH]1 | inactive

Data request: Query: outcome; subject: O=C(O)Cc1csc(-c2ccc(Cl)cc2)n1
Data returned: inactive

Data request: Query: outcome; subject: CCOc1ccccc1OCCN[C@H](C)Cc1ccc(OC)c(S(N)(=O)=O)c1
Data returned: inactive

Data request: Query: outcome; subject: OCCOCCN1CCN(C2=Nc3ccccc3Sc3ccccc32)CC1
Data returned: inactive

----------
# maps each entry to its caspase-3 activation
# METHOD_SUMMARY: Cellular Toxicity (caspase-3) Jurkat (AID 655);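 note: cells exposed to compound for 16 h at 37 °C before reading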
# APPLIED_CONDITIONS: Jurkat caspase-3 activation, luminescence, DMSO = 0%, tamoxifen = 100%; at 92.2 µM (top of the series)
Records with an inconclusive call do not appear.
Value expressed in %; do not type the unit.

• O=C(O)c1ccc(S(=O)(=O)N(Cl)Cl)cc1 = 0.943
• OC[C@H]1O[C@@H]2O[C@H]3[C@H](O)[C@@H](O)[C@@H](O[C@H]4[C@H](O)[C@@H](O)[C@@H](O[C@H]5[C@H](O)[C@@H](O)[C@@H](O[C@H]6[C@H](O)[C@@H](O)[C@@H](O[C@H]7[C@H](O)[C@@H](O)[C@@H](O[C@H]8[C@H](O)[C@@H](O)[C@@H](O[C@H]1[C@H](O)[C@H]2O)O[C@@H]8CO)O[C@@H]7CO)O[C@@H]6CO)O[C@@H]5CO)O[C@@H]4CO)O[C@@H]3CO = 1.07
• CCCN(CCC)S(=O)(=O)c1ccc(C(=O)O)cc1 = 1.65

Pending molecule:
Data request: Query: caspase-3 activation; subject: NCCNc1cccc2ccccc12
Data returned: 6.22
